Target or test system: T1, human CLDN6 fused to GFP, expressed on engineered HEK293T cells (HEK293T-CLDN6-mGFP) (human, UniProt P56747 1-220)
T1 construct: It calls residues 1-21 a signal peptide; also called Claudin-6; HEK293T-CLDN6-mGFP Artificial CLDN6+; not shown: mGFP tag
T1 sequence: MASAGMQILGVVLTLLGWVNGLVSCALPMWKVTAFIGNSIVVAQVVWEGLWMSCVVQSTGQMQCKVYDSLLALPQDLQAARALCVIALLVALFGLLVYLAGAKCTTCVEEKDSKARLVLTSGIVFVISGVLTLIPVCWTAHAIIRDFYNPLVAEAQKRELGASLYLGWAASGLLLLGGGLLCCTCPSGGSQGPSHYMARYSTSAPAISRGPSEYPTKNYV
Experiment description: FACS, 0.3 µg Ab, 293T clone with human CLDN6
Record form. Attribute: FACS fluorescence. Fill in for each entry.

| Binder | FACS fluorescence |
| --- | --- |
| AB11-chim (antibody, V domains shown, 'chim' is the pre-humanized form (parental variable regions); also called pre-humanized (chimeric) form of AB11) VH: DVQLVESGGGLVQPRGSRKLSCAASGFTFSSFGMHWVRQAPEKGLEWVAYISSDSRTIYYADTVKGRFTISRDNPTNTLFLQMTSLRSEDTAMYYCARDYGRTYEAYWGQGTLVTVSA VL: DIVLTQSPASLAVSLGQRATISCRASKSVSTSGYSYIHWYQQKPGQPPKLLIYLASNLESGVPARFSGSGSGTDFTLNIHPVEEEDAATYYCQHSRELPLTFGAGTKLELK | 1670 |

Now consider the entry below.
q: Sample AB18-chim (antibody, V domains shown, 'chim' is the pre-humanized form (parental variable regions); also called pre-humanized (chimeric) form of AB18) VH: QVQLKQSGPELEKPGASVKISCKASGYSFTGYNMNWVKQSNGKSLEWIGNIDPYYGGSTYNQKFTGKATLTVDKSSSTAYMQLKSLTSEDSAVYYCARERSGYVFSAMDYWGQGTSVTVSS VL: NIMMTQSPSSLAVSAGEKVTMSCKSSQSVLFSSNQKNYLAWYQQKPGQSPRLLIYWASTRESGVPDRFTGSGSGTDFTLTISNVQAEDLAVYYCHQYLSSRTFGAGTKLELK — what was its FACS fluorescence?
a: 73800
